assay: qHTS of pediatric cancer cell lines to identify multiple opportunities for drug repurposing: Primary screen for OHS-50 cells (AID 1347103); conditions: OHS-50 osteosarcoma viability, CellTiter-Glo luminescence, 48 h; series mostly up to 57.3 µM; also: nearly all actives have a fitted effect of over 40% in size
Records with an inconclusive call do not appear. Active and inactive are the calls of the source. Calls follow the shape of the dose curve; as a rule, active = well fitted cell-killing curve with a large enough effect; inconclusive = small, poorly fitted or top-dose-only effect; inactive = no such curve, though single readings can be large or run the other way.
Outcomes: class 1 = active, class 0 = inactive

- compound: "O=C(O)c1ccc(S(=O)(=O)N(Cl)Cl)cc1"
  class: "class 0"
- compound: "NC(=S)N/N=C/c1cccnc1"
  class: "class 0"
- compound: "COc1cc(C(=O)NCc2ccc(OCCN(C)C)cc2)cc(OC)c1OC"
  class: "class 0"
- compound: "C[C@@]12C(=O)OC(=O)[C@]1(C)C1CCC2O1"
  class: "class 1"
- compound: "CCOC(=O)[C@H](CCc1ccccc1)N[C@@H](C)C(=O)N1[C@H](C(=O)O)C[C@@H]2CCC[C@@H]21"
  class: "class 0"
- compound: "CC1(COc2ccc(CC3SC(=O)NC3=O)cc2)CCCCC1 (configuration not stated)"
  class: "class 1"
- compound: "CN(C)CCC[C@@]1(c2ccc(F)cc2)OCc2cc(C#N)ccc21"
  class: "class 0"
- compound: "O=C(O)CCc1nc2ccccc2[nH]1"
  class: "class 0"
- compound: "CCc1nn(CCCN2CCN(c3cccc(Cl)c3)CC2)c(=O)n1CCOc1ccccc1"
  class: "class 1"
- compound: "CCN1CCN(C(=O)N[C@@H](C(=O)N[C@@H]2C(=O)N3C(C(=O)O)=C(CSc4nnnn4C)CS[C@H]23)c2ccc(O)cc2)C(=O)C1=O"
  class: "class 0"
- compound: "O=C(O)CCC(=O)Nc1ccc(S(=O)(=O)Nc2nccs2)cc1"
  class: "class 0"
- compound: "CCCCCCCC/C=C\\CCCCCCCCN"
  class: "class 0"
- compound: "CC(=O)Nc1ccc(OC(=O)c2ccccc2OC(C)=O)cc1"
  class: "class 0"
- compound: "O=C(O)C(Cc1cc(I)c(O)c(I)c1)c1ccccc1 (configuration not stated)"
  class: "class 0"
- compound: "CCCN(CCC)S(=O)(=O)c1ccc(C(=O)O)cc1"
  class: "class 0"
- compound: "Oc1ccccc1C=NCc1ccccc1"
  class: "class 0"
- compound: "CO[C@H]1C=CO[C@@]2(C)Oc3c(C)c(O)c4c(O)c(c(/C=N/N5CCN(C)CC5)c(O)c4c3C2=O)NC(=O)/C(C)=C\\C=C[C@H](C)[C@H](O)[C@@H](C)[C@@H](O)[C@@H](C)[C@H](OC(C)=O)[C@@H]1C"
  class: "class 0"
- compound: "CCCCCCCCCCCCCC(=O)OC(C)C"
  class: "class 0"
- compound: "COc1cc(NS(=O)(=O)c2ccc(N)cc2)ncn1"
  class: "class 0"
- compound: "CCC(C(=O)OCCOCCN(CC)CC)c1ccccc1 (configuration not stated)"
  class: "class 0"
- compound: "NC(=O)c1ccccc1O"
  class: "class 0"
- compound: "CCCCCCCCCCCCCCC[C@H](O)[C@@H](N)CO"
  class: "class 0"
- compound: "CO[C@]12C[C@@H](COC(=O)c3cncc(Br)c3)CN(C)[C@@H]1Cc1cn(C)c3cccc2c13"
  class: "class 0"
- compound: "CCN(CC)CCNC(=O)COc1ccc(OC)cc1"
  class: "class 0"
- compound: "CC(C)(C)NC[C@H](O)COc1nsnc1N1CCOCC1"
  class: "class 0"
- compound: "COc1cc(O)c(C(=O)c2ccccc2)cc1S(=O)(=O)O"
  class: "class 0"
- compound: "CN1CCC[C@@H]1CCO[C@](C)(c1ccccc1)c1ccc(Cl)cc1"
  class: "class 1"
- compound: "Cc1c[nH]c2ccccc12"
  class: "class 0"
- compound: "NC(=O)C1(N2CCCCC2)CCN(CCCC(=O)c2ccc(F)cc2)CC1"
  class: "class 0"
- compound: "CC(=O)Nc1ccc(CC(=O)O)cc1"
  class: "class 0"
- compound: "Cc1ccc2c(Br)cc(Br)c(O)c2n1"
  class: "class 1"
- compound: "C/C=C/c1ccc(O)c(OC)c1"
  class: "class 0"
- compound: "O=C(O)C1(C(=O)O)CCC1.[NH2-].[NH2-].[Pt+2]"
  class: "class 0"
- compound: "CC(=O)Nc1ncc([N+](=O)[O-])s1"
  class: "class 0"
- compound: "CCCCNC(=O)NS(=O)(=O)c1ccc(N)cc1"
  class: "class 0"
- compound: "Cc1cccc(C)c1NC(=O)CN1CCCCCC1"
  class: "class 0"
- compound: "COc1ccc(-c2cc(C(F)F)nn2-c2ccc(S(N)(=O)=O)cc2)cc1F"
  class: "class 0"
- compound: "CCOc1cc(OCC)c(C(=O)CCC(=O)O)cc1OCC"
  class: "class 0"
- compound: "CCN1CCCC(OC(=O)C(c2ccccc2)c2ccccc2)C1 (configuration not stated)"
  class: "class 0"
- compound: "C#C[C@]1(O)CC[C@H]2[C@@H]3[C@H](C)CC4=C(CCC(=O)C4)[C@H]3CC[C@@]21C"
  class: "class 0"
- compound: "O=c1[nH]c(=O)n([C@H]2C[C@H](O)[C@@H](CO)O2)cc1F"
  class: "class 0"
- compound: "O=C1C(=O)c2ccccc2C(O)=C1C1CCC(c2ccc(Cl)cc2)CC1 (configuration not stated)"
  class: "class 0"
- compound: "CCC1Nc2cc(Cl)c(S(N)(=O)=O)cc2S(=O)(=O)N1 (configuration not stated)"
  class: "class 0"
- compound: "N#CCC(=O)NN"
  class: "class 0"
- compound: "Cc1ccc(-c2ncc(Cl)cc2-c2ccc(S(C)(=O)=O)cc2)cn1"
  class: "class 0"
- compound: "O=C(O)CCNC(=O)c1ccccc1"
  class: "class 0"
- compound: "CC(=O)NCCCCCC(=O)O"
  class: "class 0"
